Reference for the values: paper PMC5784245

System: Streptococcus sobrinus
Type: cell-based
study.conditions: 24 h
Non-standard residues stand in square brackets, D forms with d. Residues, ends and D or L forms follow the SMILES beside them. *: point of attachment. Decanoyl = CCCCCCCCCC(=O)*; dOrn = NCCC[C@@H](N)C(=O)O; Orn = NCCC[C@H](N)C(=O)O
// returns -1 unless MIC Streptococcus sobrinus is strictly below 2 µg/mL, in which case 1

### Prompt Dear colleague, could you confirm whether MIC Streptococcus sobrinus of CC[C@@H](C)[C@@H](NC(=O)[C@@H](NC(=O)[C@H](CO)NC(=O)[C@H](Cc1ccccc1)NC(=O)[C@@H](CCCN)NC(=O)[C@H](CO)NC(=O)[C@H](CO)NC(=O)[C@@H](Cc1ccccc1)NC(=O)[C@@H](CO)NC(=O)[C@H](NC(=O)[C@@H](CCCN)NC(=O)[C@H](N)Cc1ccccc1)[C@H](C)CC)C(C)C)C(=O)N[C@@H](CCCN)C(=O)O [5F] (H-[dF][dOrn][dI][dS][dF]SS[dOrn]FSV[dI][Orn]-OH) falls below 2 µg/mL? Thanks.
### Response -1

### Prompt Dear colleague, could you confirm whether MIC Streptococcus sobrinus of CC[C@@H](C)[C@@H](NC(=O)[C@@H](NC(=O)[C@H](CO)NC(=O)[C@H](Cc1ccccc1)NC(=O)[C@@H](CCCN)NC(=O)[C@H](CO)NC(=O)[C@H](CO)NC(=O)[C@@H](Cc1ccccc1)NC(=O)[C@@H](CO)NC(=O)[C@H](NC(=O)[C@@H](CCCN)NC(=O)[C@@H](Cc1ccccc1)NC(C)=O)[C@H](C)CC)C(C)C)C(=O)N[C@@H](CCCN)C(=O)O [4F, paenimucillin C] (Ac-[dF][dOrn][dI][dS][dF]SS[dOrn]FSV[dI][Orn]-OH) falls below 2 µg/mL? Thanks.
### Response -1

### Prompt Dear colleague, could you confirm whether MIC Streptococcus sobrinus of CCCCCCCCCC(=O)N[C@H](Cc1ccccc1)C(=O)N[C@H](CCCN)C(=O)N[C@@H](C(=O)N[C@H](CO)C(=O)N[C@H](Cc1c[nH]c2ccccc12)C(=O)N[C@@H](CO)C(=O)N[C@@H](CO)C(=O)N[C@H](CCCN)C(=O)N[C@@H](Cc1c[nH]c2ccccc12)C(=O)N[C@@H](CO)C(=O)N[C@H](C(=O)N[C@@H](C(=O)N[C@@H](CCCN)C(=O)O)[C@H](C)CC)C(C)C)[C@H](C)CC [1W, paenimucillin B] (Decanoyl-[dF][dOrn][dI][dS][dW]SS[dOrn]WSV[dI][Orn]-OH) falls below 2 µg/mL? Thanks.
### Response 1

### Prompt Dear colleague, could you confirm whether MIC Streptococcus sobrinus of CC[C@@H](C)[C@@H](NC(=O)[C@@H](NC(=O)[C@H](CO)NC(=O)[C@H](Cc1c[nH]c2ccccc12)NC(=O)[C@@H](CCCN)NC(=O)[C@H](CO)NC(=O)[C@H](CO)NC(=O)[C@@H](Cc1c[nH]c2ccccc12)NC(=O)[C@@H](CO)NC(=O)[C@H](NC(=O)[C@@H](CCCN)NC(=O)[C@H](N)Cc1ccccc1)[C@H](C)CC)C(C)C)C(=O)N[C@@H](CCCN)C(=O)O [5W] (H-[dF][dOrn][dI][dS][dW]SS[dOrn]WSV[dI][Orn]-OH) falls below 2 µg/mL? Thanks.
### Response -1
